Some binders, each annotated with its measured koff.
# targetDesc: human full-length VWF (human, UniProt P04275 764-2813)
# assayDetails: SPR, Biacore T200, antibody captured on Protein A, full-length VWF as analyte, single-cycle kinetics
Report as a plain number; the unit s⁻¹ is understood.

Sample records with koff:
binder: 4-H3_H4_L0 (antibody, human IgG1, kappa, V domains shown, humanised, human IgG1 kappa) VH: QVQLVESGGGVVQPGRSLRLSCAASGIDLTSNAMNWVRQAPGKGLEWVAGIYGHDTSYYAAWAKGRFTISRDNSKNTLYLQMNSLRAEDTATYFCARGFIYFDIWGQGTLVTVSS VL: DIQMTQSPSSLSASVGDRVTITCLASEDIASGISWYQQKPGKAPKLLIYGASNLESGVPSRFSGSGSGTDFTLTISSLQPEDFATYYCLGGYSFSSNGLTFGGGTKVEIKT
unitName: s⁻¹
readoutNumber: 5.24e-07
--
binder: 4-H3_H3_L1 (antibody, human IgG1, kappa, V domains shown, humanised, human IgG1 kappa) VH: QVQLVESGGGVVQPGRSLRLSCAASGIDLTSNAMNWVRQAPGKGLEWIGGIYGHDTSYYAAWAKGRFTISRDNSKNTVYLQMNSLRAEDTAVYYCARGFIYFDIWGQGTLVTVSS VL: DYQMTQSPSSLSASVGDRVTITCLASEDIASGISWYQQKPGKAPKLLIYGASNLESGVPSRFSGSGSGTDYTLTISSLQPEDFATYYCLGGYSFSSNGLTFGGGTKVEIKT
unitName: s⁻¹
readoutNumber: 1.72e-07
--
binder: 4-H3_H3_L0 (antibody, human IgG1, kappa, V domains shown, humanised, human IgG1 kappa) VH: QVQLVESGGGVVQPGRSLRLSCAASGIDLTSNAMNWVRQAPGKGLEWIGGIYGHDTSYYAAWAKGRFTISRDNSKNTVYLQMNSLRAEDTAVYYCARGFIYFDIWGQGTLVTVSS VL: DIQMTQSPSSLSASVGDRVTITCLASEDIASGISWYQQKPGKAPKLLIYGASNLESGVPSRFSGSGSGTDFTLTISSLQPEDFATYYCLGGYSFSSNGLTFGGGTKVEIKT
unitName: s⁻¹
readoutNumber: 1.45e-07

Give the reported value of koff for this record: 4-H3_H0_L1 rep (antibody, human IgG1, kappa, V domains shown, humanised, human IgG1 kappa) VH: QVQLVESGGGVVQPGRSLRLSCAASGFTFSSNAMNWVRQAPGKGLEWVAGIYGHDTSYYAAWAKGRFTISRDNSKNTLYLQMNSLRAEDTAVYYCARGFIYFDIWGQGTLVTVSS VL: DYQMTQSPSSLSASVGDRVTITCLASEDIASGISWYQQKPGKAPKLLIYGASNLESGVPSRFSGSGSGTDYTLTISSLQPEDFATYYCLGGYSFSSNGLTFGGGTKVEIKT
1.52e-07

Where do the numbers come from? From patent US20240228660A1.
